Molecular target: His6-Flag-TEV-NLRP3 (134-1036) (Homo sapiens)
Construct: fused on or other part: N-terminal His6 tag, Flag tag and TEV cleavage site
Experiment: NLRP3 fluorescence polarization (FP) binding assay, competition with probe NP3-301
Conditions: competition with NP3-301 for binding to NLRP3 (134-1036), 30 nM protein
pIC50: −log10 of the molar value.
REPORTED PROPERTY: pIC50

Sample Cc1cc(C(F)(F)F)cc(O)c1-c1ccc2oc(NC[C@@H]3COCCN3C(=O)C(F)F)nc2n1 , system: His6-Flag-TEV-NLRP3 (134-1036) (Homo sapiens). Its pIC50 is ≥ 7.00

The recorded pIC50 with His6-Flag-TEV-NLRP3 (134-1036) (Homo sapiens) for CC(=O)N1CCOC[C@H]1CNc1nc2nc(-c3c(C)cc(Cl)cc3O)ccc2o1 was ≥ 7.00

Sample Cc1cc(C(F)(F)F)cc(O)c1-c1ccc2nc(N3CCOCC3)nn2n1 , system: His6-Flag-TEV-NLRP3 (134-1036) (Homo sapiens). Its pIC50 is ≥ 7.00

====

Target: His6-Flag-TEV-NLRP3 (134-1036) (Homo sapiens)
Construct: fused on or other part: N-terminal His6 tag, Flag tag and TEV cleavage site
Test: NLRP3 fluorescence polarization (FP) binding assay, competition with probe NP3-301
Settings: competition with NP3-301 for binding to NLRP3 (134-1036), 30 nM protein
pIC50: −log10 of the molar value.
REPORTED PROPERTY: pIC50

Examples with answers:
[[record]]
compound = "CC(=O)N1CC[C@H](Nc2nc3nc(-c4c(C)cc(C(F)(F)F)cc4O)ccc3o2)C1"
experimental_value = "6.30 to 7.00"

[[record]]
compound = "CC(=O)N1CCOC[C@H]1CNc1nc2nc(-c3c(C)cc(C(F)(F)F)cc3O)cc(C)n2n1"
experimental_value = "6.30 to 7.00"


Next item in the queue.
Measured pIC50, CC(=O)N1CCC[C@@H](Nc2nc3nc(-c4c(C)cc(C(F)(F)F)cc4O)ncc3[nH]2)C1 : 6.30 to 7.00

====

Target: His6-Flag-TEV-NLRP3 (134-1036) (Homo sapiens, UniProt Q96P20)
Construct: fused on or other part: N-terminal His6 tag, Flag tag and TEV cleavage site
Sequence (Q96P20 134-1036 limits assumed): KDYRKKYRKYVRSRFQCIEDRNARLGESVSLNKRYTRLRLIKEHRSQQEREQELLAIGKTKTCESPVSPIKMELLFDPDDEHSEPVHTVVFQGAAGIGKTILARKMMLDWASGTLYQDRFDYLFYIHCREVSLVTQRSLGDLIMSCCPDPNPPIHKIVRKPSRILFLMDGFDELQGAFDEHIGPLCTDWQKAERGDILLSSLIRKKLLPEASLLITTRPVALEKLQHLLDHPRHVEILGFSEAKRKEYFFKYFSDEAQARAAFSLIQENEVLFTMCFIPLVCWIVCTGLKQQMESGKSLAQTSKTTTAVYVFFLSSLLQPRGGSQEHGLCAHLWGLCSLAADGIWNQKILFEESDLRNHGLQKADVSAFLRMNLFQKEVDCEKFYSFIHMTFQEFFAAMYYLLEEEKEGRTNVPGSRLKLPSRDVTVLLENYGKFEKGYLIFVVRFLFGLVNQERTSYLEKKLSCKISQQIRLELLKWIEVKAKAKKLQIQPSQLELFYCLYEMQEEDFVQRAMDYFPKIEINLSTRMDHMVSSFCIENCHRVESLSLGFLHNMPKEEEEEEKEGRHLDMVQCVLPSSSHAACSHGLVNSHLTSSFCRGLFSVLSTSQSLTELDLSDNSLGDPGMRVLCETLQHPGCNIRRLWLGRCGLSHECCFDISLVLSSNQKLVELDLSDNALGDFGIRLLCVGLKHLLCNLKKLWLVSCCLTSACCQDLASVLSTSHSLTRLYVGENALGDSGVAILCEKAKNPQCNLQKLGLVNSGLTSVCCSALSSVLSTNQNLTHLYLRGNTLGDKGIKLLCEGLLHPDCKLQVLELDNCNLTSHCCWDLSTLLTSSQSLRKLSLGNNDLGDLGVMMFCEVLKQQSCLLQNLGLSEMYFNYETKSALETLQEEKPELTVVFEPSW
Assay: NLRP3 fluorescence polarization (FP) binding assay, competition with probe NP3-301
Settings: competition with NP3-301 for binding to NLRP3 (134-1036), 30 nM protein
Measured IC50, listed per entry.

// IC50 value for Cc1cc(C(F)(F)F)cc(O)c1-c1ccc2oc(N3CCS(=O)(=O)CC3)nc2n1 : ≤ 100 nM

Note to self: IC50 recorded for CC(=O)N1CCN(c2nc3nc(-c4c(C)cc(C(F)(F)F)cc4O)ccc3o2)CC1 was ≤ 100 nM

====

Target: His6-Flag-TEV-NLRP3 (134-1036) (Homo sapiens)
Construct: fused on or other part: N-terminal His6 tag, Flag tag and TEV cleavage site
Test: NLRP3 fluorescence polarization (FP) binding assay, competition with probe NP3-301
Details: competition with NP3-301 for binding to NLRP3 (134-1036), 30 nM protein
REPORTED PROPERTY: IC50

Example entries begin here.
[[record]]
molecule = "CCN1CCC[C@@H](n2ccc3cc(-c4c(C)cc(C(F)(F)F)cc4O)nnc32)C1 [Compound 11-a]"
experimental_value = "≤ 100 nM"

[[record]]
molecule = "CCC(=O)N1CCOC[C@H]1CNc1nc2nc(-c3c(C)cc(C(F)(F)F)cc3O)ccc2o1 [Compound 250]"
experimental_value = "≤ 100 nM"

[[record]]
molecule = "Cc1cc(C(F)(F)F)cc(O)c1-c1ccc2nc(N[C@@H]3CCCN(CCO)C3)nn2n1 [Compound 454]"
experimental_value = "≤ 100 nM"

[[record]]
molecule = "Cc1cc(C(F)(F)F)cc(O)c1-c1ccc2oc(N[C@@H]3CCCN(S(=O)(=O)C4CC4)C3)nc2n1 [Compound 406]"
experimental_value = "≤ 100 nM"

[[record]]
molecule = "Cc1cc(C(F)(F)F)cc(O)c1-c1ccc2oc(N[C@@H]3CCCN(S(C)(=O)=O)C3)nc2n1 [Compound 408]"
experimental_value = "≤ 100 nM"

[[record]]
molecule = "Cc1cc(C(F)(F)F)cc(O)c1-c1ccc2oc(NC[C@@H]3COCCN3C(=O)C(C)C)nc2n1 [Compound 248]"
experimental_value = "≤ 100 nM"

[[record]]
molecule = "CC(=O)N1C[C@@H](O)[C@H](Nc2nc3nc(-c4c(C)cc(C(F)(F)F)cc4O)ccc3o2)C1 [Compound 272]"
experimental_value = "≤ 100 nM"

[[record]]
molecule = "Cc1cc(C(F)(F)F)cc(O)c1-c1ccn2nc(N3CCOCC3)nc2n1 [Compound 426]"
experimental_value = "≤ 100 nM"

[[record]]
molecule = "Cc1cc(C(F)(F)F)cc(O)c1-c1cc2ccn(C3CCS(=O)(=O)C3)c2nn1 (stereo not shown) [Compound 123]"
experimental_value = "500 to 1000 nM"


Here's the next entry for you.
Measured IC50, Cc1cc(C(F)(F)F)cc(O)c1-c1ccc2oc(N3CC4CC(C3)O4)nc2n1 [Compound 378] : 100 to 500 nM

Where do the numbers come from? From patent US20260234150A1.
